Tested on: urease in living cells of P. mirabilis PCM 543
assay name: Inhibition of ureolysis in whole P. mirabilis cells in artificial urine model
experimental context: Proteus mirabilis, read-out: IC90 (urine model)
result type: IC90 (nM)
// note: answer is a bare numeric in nM

Challenge: IC90 for "COc1ccc(Cl)cc1-n1[se]c2ccccc2c1=O" ?
Response given: 82.2

Challenge: Return reported IC90; argument: "Cc1cc(-n2[se]c3ccccc3c2=O)ccc1Cl"
Response given: 124

Challenge: What IC90 value was documented for this compound, "COc1ccc(-n2[se]c3ccccc3c2=O)c(C)c1" ?
Response given: 148

Challenge: Look up IC90: "O=c1c2ccccc2[se]n1-c1cc(Cl)ccc1Cl"
Response given: 254

Challenge: Quick one: IC90 of "Cc1ccc(-n2[se]c3ccccc3c2=O)c(Cl)c1" ?
Response given: 176

Challenge: Recorded IC90 for "COc1ccc(C)cc1-n1[se]c2ccccc2c1=O" , please?
Response given: 96.6

Challenge: Name the reported IC90 value associated with the compound "O=c1c2ccccc2[se]n1-c1ccc(F)cc1F"
Response given: 130

Challenge: Would you kindly share the measured IC90 for "O=c1c2ccccc2[se]n1-c1ccccc1F" ?
Response given: 34.7

Challenge: Give its IC90 value. Item: "O=c1c2ccccc2[se]n1-c1ccccc1Cl"
Response given: 87.7

Challenge: Data request, read-out IC90, for "Cc1ccc(Cl)c(-n2[se]c3ccccc3c2=O)c1"
Response given: 243

Challenge: # input compound: "O=c1c2ccccc2[se]n1-c1ccc(F)cc1Cl" ; wanted: its IC90
Response given: 126

Challenge: Quick check: IC90 of "O=c1c2ccccc2[se]n1-c1cccc(F)c1" ?
Response given: 223

Challenge: Returns the measured IC90 for the input compound. Input: "O=c1c2ccccc2[se]n1-c1ccc(C(F)(F)F)cc1"
Response given: 100

Challenge: Consider the compound shown here: "O=c1c2ccccc2[se]n1-c1cc(Cl)ccc1F" What is its recorded IC90?
Response given: 151

Challenge: # IC90 lookup, item "O=c1c2ccccc2[se]n1-c1ccccc1Br"
Response given: 543

Challenge: So what does the record say about IC90 for "CCCCOc1ccc(-n2[se]c3ccccc3c2=O)cc1" ?
Response given: 224

Challenge: Look up IC90: "O=c1c2ccccc2[se]n1-c1ccccc1O"
Response given: 148

Challenge: Record request: IC90 value, item "O=c1c2ccccc2[se]n1-c1ccc(F)cc1"
Response given: 145

Challenge: Data request, read-out IC90, for "COc1cccc(-n2[se]c3ccccc3c2=O)c1"
Response given: 53.8

Challenge: Which IC90 value belongs to "Cc1ccccc1-n1[se]c2ccccc2c1=O" ?
Response given: 121

Challenge: Looking for the measured IC90 of "COc1ccc(-n2[se]c3ccccc3c2=O)cc1" , can you help?
Response given: 180

Challenge: Bench note: what IC90 did "COc1ccccc1-n1[se]c2ccccc2c1=O" show?
Response given: 18.8

====

Heads up, these molecules all have log10(Ki) values measured for Sporosarcina pasteurii urease (Sporosarcina pasteurii).
Hello, just confirming the data are log10 of Ki with units of nM.

Challenge: Name the reported log10(Ki) value associated with the molecule O=c1c2ccccc2[se]n1-c1cccc(F)c1 [compound 36]
Response given: 0.28

Challenge: Could you tell me which log10(Ki) is on file for COc1cccc(-n2[se]c3ccccc3c2=O)c1 [compound 37] ?
Response given: 0.03

Challenge: What measured log10(Ki) goes with O=c1c2ccccc2[se]n1-c1cc(Cl)ccc1Cl [compound 51] ?
Response given: -2.05

Challenge: I am curious: what log10(Ki) value has been reported for COc1ccc(C)cc1-n1[se]c2ccccc2c1=O [compound 52] ?
Response given: 0.85

Challenge: Name the recorded log10(Ki) for O=c1c2ccccc2[se]n1-c1ccc(F)cc1Cl [compound 47] .
Response given: -2.24

Challenge: # get_value(readout='log10(Ki)', item= Cc1ccc(-n2[se]c3ccccc3c2=O)cc1 [compound 38] )
Response given: 0.61

Challenge: Which value of log10(Ki) has been reported for COc1ccc(-n2[se]c3ccccc3c2=O)c(C)c1 [compound 43] in the records?
Response given: 0.86

Challenge: Item under review: O=c1c2ccccc2[se]n1-c1cc(Cl)ccc1F [compound 49] . Reported log10(Ki)?
Response given: -1.87
